# System: AP-1 induced transcriptional activity
# run_description: Cellular Transrepressional Assay (AP-1 luciferase reporter in A549 cell, PMA activated)
# Assay type: cell-based
# assay_context: Homo sapiens, A549, 7 h, maximum inhibition, pAP-1-Luc, PMA, read-out: AP-1 Max % inh (Cellular Transrepression Assay)
assay_metric: Emax (%)
Output spec: scalar in %, unitless text.

Jot down Emax (AP-1 induced transcriptional activity) of CN(C)C(=O)c1ccc(-c2ccc(C(c3cc(F)cc(F)c3)C(C)(C)C(=O)Nc3nncs3)s2)cc1 (stereo not shown) .
32.7

Consider the compound CC(C)Oc1ccc(-c2ccc(C(c3cccc(F)c3)C(C)(C)C(=O)Nc3nncs3)s2)cc1 (stereo not shown) tested on AP-1 induced transcriptional activity; state its Emax.
23.1

Quote Emax with test system AP-1 induced transcriptional activity for C[C@@H](C(=O)Nc1nncs1)[C@H](c1cccc(F)c1)c1ccc(-c2ccc(C(=O)N(C)C)c(Cl)c2)s1
47

// fetch Emax; item: C[C@@H](C(=O)Nc1nncs1)[C@H](c1cccc(F)c1)c1ccc(-c2ccc(C(=O)N3CCOCC3)c(Cl)c2)s1 ; system: AP-1 induced transcriptional activity
53.3

Enter measured Emax, system AP-1 induced transcriptional activity, for the compound shown: CC(C)(C(=O)Nc1nncs1)[C@@H](c1cccc(F)c1)c1ccc(-c2ccc(C(=O)N3CCOCC3)c(Cl)c2)s1
51.2

Param request: Emax | system AP-1 induced transcriptional activity | item CC(C)(C(=O)Nc1nncs1)C(c1ccccc1)c1ccc(-c2ccc(C(=O)N3CCCC3)cc2)s1 (stereo not shown)
39.9

Enter measured Emax, system AP-1 induced transcriptional activity, for the compound shown: CN(C)C(=O)c1ccc(-c2ccc(C(c3ccccc3)C(C)(C)C(=O)Nc3nccs3)s2)cc1 (stereo not shown)
62.4

###

Give measured Ki for each item. Keep answers brief.
# study_target: human glucocorticoid receptor (Homo sapiens, UniProt P04150)
# Construct: purified human recombinant full-length glucocorticoid receptor (2 nM); purchased Invitrogen Part #2893
# Sequence (P04150 whole entry): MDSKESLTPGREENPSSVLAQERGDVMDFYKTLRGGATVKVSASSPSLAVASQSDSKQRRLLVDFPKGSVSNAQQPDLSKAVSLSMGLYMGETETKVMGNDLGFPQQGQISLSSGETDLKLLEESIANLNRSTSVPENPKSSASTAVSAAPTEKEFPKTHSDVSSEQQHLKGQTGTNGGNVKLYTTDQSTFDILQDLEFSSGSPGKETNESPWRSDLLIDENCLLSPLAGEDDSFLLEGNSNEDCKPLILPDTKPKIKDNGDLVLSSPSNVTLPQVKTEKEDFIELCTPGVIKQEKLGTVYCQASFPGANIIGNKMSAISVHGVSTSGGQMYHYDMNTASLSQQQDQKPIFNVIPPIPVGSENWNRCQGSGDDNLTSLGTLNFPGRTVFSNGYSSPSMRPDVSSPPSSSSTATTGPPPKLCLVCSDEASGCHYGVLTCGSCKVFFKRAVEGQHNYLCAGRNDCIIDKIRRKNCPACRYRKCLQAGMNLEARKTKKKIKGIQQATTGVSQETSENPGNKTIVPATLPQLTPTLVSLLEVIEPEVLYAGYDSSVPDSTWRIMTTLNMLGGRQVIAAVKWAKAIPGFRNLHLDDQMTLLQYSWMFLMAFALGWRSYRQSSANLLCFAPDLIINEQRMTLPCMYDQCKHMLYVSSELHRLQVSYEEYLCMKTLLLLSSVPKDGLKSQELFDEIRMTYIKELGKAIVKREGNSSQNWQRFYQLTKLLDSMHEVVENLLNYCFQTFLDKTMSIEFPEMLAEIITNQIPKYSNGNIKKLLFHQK
# run_description: Glucocorticoid Receptor Binding Assay (I), fluorescence polarization competitor kit
# assay_context: purified human recombinant full-length GR, Fluormone GS Red
Write the number in nM without appending the unit.

Retrieve Ki on human glucocorticoid receptor (Homo sapiens, UniProt P04150); query COC(=O)c1ccc(-c2ccc(C(c3ccccc3)C(C)(C)C(=O)Nc3nncs3)s2)cc1F (stereo not drawn)
152

Write down the reported Ki (system: human glucocorticoid receptor (Homo sapiens, UniProt P04150)) of CCN(CC)C(=O)c1ccc(-c2ccc([C@H](c3cccc(F)c3)C(C)(C)C(=O)Nc3nncs3)s2)cc1
1.03

Answer briefly: Ki recorded on human glucocorticoid receptor (Homo sapiens, UniProt P04150) for CC(C)Oc1ccc(-c2ccc(C(c3cccc(F)c3)C(C)(C)C(=O)Nc3nncs3)s2)cc1F (stereo not drawn)
53.5

Report its Ki with human glucocorticoid receptor (Homo sapiens, UniProt P04150) as the test system: C[C@H](C(=O)Nc1nncs1)[C@H](c1cccc(F)c1)c1ccc(-c2ccc(C(=O)N3CCOCC3)c(Cl)c2)s1
148

Report the value of Ki obtained on human glucocorticoid receptor (Homo sapiens, UniProt P04150) for CN(C)C(=O)c1ccc(-c2ccc(C(c3ccccc3)C(C)(C)C(=O)Nc3nncs3)s2)cc1 (stereo not drawn) .
0.89

Provide measured Ki on human glucocorticoid receptor (Homo sapiens, UniProt P04150) for CC(C)Oc1ccc(-c2ccc(C(c3ccccc3)C(C)(C)C(=O)Nc3nncs3)cn2)cc1F (stereo not drawn) please.
7.69

Answer briefly: Ki recorded on human glucocorticoid receptor (Homo sapiens, UniProt P04150) for C[C@@H](C(=O)Nc1nncs1)[C@@H](c1cccc(F)c1)c1ccc(-c2ccc(C(=O)N(C)C)c(Cl)c2)s1
158

Report value only: Ki, human glucocorticoid receptor (Homo sapiens, UniProt P04150), CC(C(=O)Nc1nncs1)C(c1cccc(F)c1)c1ccc(Br)s1 (mixture of isomers)
2.79

Supply Ki measured with human glucocorticoid receptor (Homo sapiens, UniProt P04150) for CC(C)(C(=O)Nc1nncs1)[C@@H](c1cccc(F)c1)c1ccc(-c2ccc(C(=O)O)c(F)c2)s1 .
24.5

Please respond with reported Ki (system human glucocorticoid receptor (Homo sapiens, UniProt P04150)) for C[C@@H](C(=O)Nc1nncs1)[C@H](c1ccccc1)c1ccc(Br)s1 .
1.98

Report Ki under test system human glucocorticoid receptor (Homo sapiens, UniProt P04150) for CC(C)(C(=O)Nc1nncs1)[C@@H](c1cccc(F)c1)c1ccc(-c2ccc(C(N)=O)cc2)s1 .
2.24

Fill: Ki (human glucocorticoid receptor (Homo sapiens, UniProt P04150)) for this compound CC(C)(C(=O)Nc1nncs1)C(c1ccccc1)c1ccc(-c2ccc(C(=O)N3CCC(F)(F)CC3)cc2)s1 (stereo not drawn)
36.8

Param request: Ki | system human glucocorticoid receptor (Homo sapiens, UniProt P04150) | item CC(C)(C(=O)Nc1nncs1)[C@H](c1cccc(F)c1)c1ccc(Br)s1
1.21

Answer with Ki of CN(C)C(=O)c1ccc(-c2ccc([C@@H](c3cccc(F)c3)C(C)(C)C(=O)Nc3nncs3)s2)cc1 measured for human glucocorticoid receptor (Homo sapiens, UniProt P04150).
29.2

Output reported Ki of the compound C[C@H](C(=O)Nc1nncs1)[C@H](c1cccc(F)c1)c1ccc(Br)s1 on human glucocorticoid receptor (Homo sapiens, UniProt P04150).
0.76
